The reported numbers originate from patent US20240393292A1.

System: IgE antibodies from patients
Assay: Wheat epitope mapping (2): overlapping 10-amino-acid peptide fragments shifted by one amino acid;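 for epitope sequence binding to IgE antibody, rank (Key/Preferably/More preferably): key of grades: preferably = shorter partial sequence still acting as epitope; more preferably = sequence improving IgE binding; key = particularly important sequence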
Format: binding, human
Conditions: serum of patient G9 (adult, general immediate type allergy to wheat)
READOUT_NAME: epitope sequence binding to IgE antibody, rank (Key/Preferably/More preferably)

Consider the following illustrative entries.
[[record]]
substance = "1788 (LKKVGYNP; REGION 1..8: note = epitope) [compound 1788]"
result = "Key"

[[record]]
substance = "1894 (VRTLQ; REGION 1..5: note = epitope) [compound 1894]"
result = "Key"

[[record]]
substance = "1787 (KEVSSYLK; REGION 1..8: note = epitope) [compound 1787]"
result = "Key"

[[record]]
substance = "1786 (KEVSSYLKK; REGION 1..9: note = epitope) [compound 1786]"
result = "Preferably"


Now for the substance whose epitope sequence binding to IgE antibody, rank (Key/Preferably/More preferably) we want.
Consider the substance 1893 (YTVRTLQRT; REGION 1..9: note = epitope) [compound 1893] tested on IgE antibodies from patients; state its epitope sequence binding to IgE antibody, rank (Key/Preferably/More preferably).
Preferably

* * *

Tested on: IgE antibodies from patients
Assay: Wheat epitope mapping (2): overlapping 10-amino-acid peptide fragments shifted by one amino acid
Assay type: binding, human
Conditions: serum of patient P53 (child, general immediate type allergy to wheat); partial sequence
Description: The peptides to be synthesized were shifted by one amino acid. The library was prepared by the same procedure as described above in (A), and the presence or absence of binding of an IgE antibody present in the serum of a patient to each peptide fragment was measured by the same technique as described above. […]
READOUT_NAME: Epitope sequence binding to IgE antibody, rank of the sequence

[[record]]
substance = "2518 (PSQLNPQ; REGION 1..7: note = epitope) [compound 2518]"
experimental_target = "IgE antibodies from patients"
result = "Preferably"

[[record]]
substance = "2519 (PSQLN; REGION 1..5: note = epitope) [compound 2519]"
experimental_target = "IgE antibodies from patients"
result = "Key"

[[record]]
substance = "2516 (SSQVSF; REGION 1..6: note = epitope) [compound 2516]"
experimental_target = "IgE antibodies from patients"
result = "Key"

[[record]]
substance = "2597 (QQSTYQLV; REGION 1..8: note = epitope) [compound 2597]"
experimental_target = "IgE antibodies from patients"
result = "Key"

[[record]]
substance = "2600 (QQLC; REGION 1..4: note = epitope) [compound 2600]"
experimental_target = "IgE antibodies from patients"
result = "Key"

[[record]]
substance = "2599 (QLVQQLCC; REGION 1..8: note = epitope) [compound 2599]"
experimental_target = "IgE antibodies from patients"
result = "Preferably"


Now for the substance whose Epitope sequence binding to IgE antibody, rank of the sequence we want.
For the substance 2601 (QQSTYQLVQ; REGION 1..9: note = epitope) [compound 2601] , give its measured Epitope sequence binding to IgE antibody, rank of the sequence value.
Preferably

* * *

System: IgE antibodies from patients
Assay: Wheat epitope mapping (2): overlapping 10-amino-acid peptide fragments shifted by one amino acid
Type: binding, human
Conditions: serum of patient G7 (adult, general immediate type allergy to wheat); partial sequence
READOUT_NAME: Epitope sequence binding to IgE antibody, rank of the sequence

[[record]]
substance = "2627 (LLASLSKRV; REGION 1..9: note = epitope) [compound 2627]"
experimental_target = "IgE antibodies from patients"
result = "Key"

[[record]]
substance = "2542 (SSQVSF; REGION 1..6: note = epitope) [compound 2542]"
experimental_target = "IgE antibodies from patients"
result = "Key"


* * *

Tested on: IgE antibodies from patients
Assay: Wheat epitope mapping (2): overlapping 10-amino-acid peptide fragments shifted by one amino acid
Type: binding, human
Details: serum of patient G3 (adult, general immediate type allergy to wheat); partial sequence
READOUT_NAME: Epitope sequence binding to IgE antibody, rank of the sequence

Consider the following illustrative entries.
[[record]]
substance = "2626 (LSKRV; REGION 1..5: note = epitope) [compound 2626]"
result = "Key"

[[record]]
substance = "2623 (SAKPLL; REGION 1..6: note = epitope) [compound 2623]"
result = "Preferably"

[[record]]
substance = "2625 (ASLSKRV; REGION 1..7: note = epitope) [compound 2625]"
result = "Preferably"

[[record]]
substance = "2624 (AKPLL; REGION 1..5: note = epitope) [compound 2624]"
result = "Key"

[[record]]
substance = "2605 (QLVQ; REGION 1..4: note = epitope) [compound 2605]"
result = "Key"


For the substance 2696 (YKGPTL; REGION 1..6: note = epitope) [compound 2696] , give its measured Epitope sequence binding to IgE antibody, rank of the sequence value.
Key

* * *

Tested on: IgE antibodies from patients
Test: Wheat epitope mapping (2): overlapping 10-amino-acid peptide fragments shifted by one amino acid;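 for epitope sequence binding to IgE antibody, rank (Key/Preferably/More preferably): key of grades: preferably = shorter partial sequence still acting as epitope; more preferably = sequence improving IgE binding; key = particularly important sequence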
Type: binding, human
Conditions: serum of patient P24 (WDEIA)
Description: The peptides to be synthesized were shifted by one amino acid. The library was prepared by the same procedure as described above in (A), and the presence or absence of binding of an IgE antibody present in the serum of a patient to each peptide fragment was measured by the same technique as described above. […]
READOUT_NAME: epitope sequence binding to IgE antibody, rank (Key/Preferably/More preferably)

Consider the following illustrative entries.
[[record]]
substance = "1951 (QFPGQQQ; REGION 1..7: note = epitope) [compound 1951]"
result = "Preferably"

[[record]]
substance = "1862 (VRTLQ; REGION 1..5: note = epitope) [compound 1862]"
result = "Key"

[[record]]
substance = "1861 (TVRTLQRT; REGION 1..8: note = epitope) [compound 1861]"
result = "Preferably"

[[record]]
substance = "1952 (QFPGQQ; REGION 1..6: note = epitope) [compound 1952]"
result = "Key"

[[record]]
substance = "1949 (VPLVQQ; REGION 1..6: note = epitope) [compound 1949]"
result = "Key"


Now for the substance whose epitope sequence binding to IgE antibody, rank (Key/Preferably/More preferably) we want.
For the substance 1948 (QVPLVQQQ; REGION 1..8: note = epitope) [compound 1948] , give its measured epitope sequence binding to IgE antibody, rank (Key/Preferably/More preferably) value.
Preferably

* * *

Tested on: IgE antibodies from patients
Assay: Wheat epitope mapping (2): overlapping 10-amino-acid peptide fragments shifted by one amino acid;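 for epitope sequence binding to IgE antibody, rank (Key/Preferably/More preferably): key of grades: preferably = shorter partial sequence still acting as epitope; more preferably = sequence improving IgE binding; key = particularly important sequence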
Type: binding, human
Conditions: serum of patient P15 (WDEIA)
READOUT_NAME: epitope sequence binding to IgE antibody, rank (Key/Preferably/More preferably)

Consider the following illustrative entries.
[[record]]
substance = "1798 (EALPKFLKN; REGION 1..9: note = epitope) [compound 1798]"
experimental_target = "IgE antibodies from patients"
result = "Preferably"

[[record]]
substance = "1929 (QFPGQQQ; REGION 1..7: note = epitope) [compound 1929]"
experimental_target = "IgE antibodies from patients"
result = "Preferably"

[[record]]
substance = "1799 (KFLK; REGION 1..4: note = epitope) [compound 1799]"
experimental_target = "IgE antibodies from patients"
result = "Key"

[[record]]
substance = "1928 (VPLVQQQ; REGION 1..7: note = epitope) [compound 1928]"
experimental_target = "IgE antibodies from patients"
result = "Key"

[[record]]
substance = "1796 (SGKELEALPK; REGION 1..10: note = epitope) [compound 1796]"
experimental_target = "IgE antibodies from patients"
result = "Preferably"


Now for the substance whose epitope sequence binding to IgE antibody, rank (Key/Preferably/More preferably) we want.
For the substance 1930 (FPGQQQ; REGION 1..6: note = epitope) [compound 1930] , give its measured epitope sequence binding to IgE antibody, rank (Key/Preferably/More preferably) value.
Key

* * *

System: IgE antibodies from patients
Assay: Wheat epitope mapping (2): overlapping 10-amino-acid peptide fragments shifted by one amino acid
Format: binding, human
Details: serum of patient P4 (WDEIA); sequence without X
READOUT_NAME: Epitope sequence binding to IgE antibody, rank of the sequence

[[record]]
substance = "1372 (QPLPPQQQ; REGION 1..8: note = epitope) [compound 1372]"
experimental_target = "IgE antibodies from patients"
result = "Key"

[[record]]
substance = "1414 (YLQPQQPISQ; REGION 1..10: note = epitope) [compound 1414]"
experimental_target = "IgE antibodies from patients"
result = "Preferably"

[[record]]
substance = "1371 (QPLPPQQQP; REGION 1..9: note = epitope) [compound 1371]"
experimental_target = "IgE antibodies from patients"
result = "Preferably"

[[record]]
substance = "1415 (YLQPQQPIS; REGION 1..9: note = epitope) [compound 1415]"
experimental_target = "IgE antibodies from patients"
result = "Key"

